# TGI per entry
System: MALME-3M melanoma
Test: NCI tumour cell line growth inhibition, 48 h

compound: CC(=O)OC1CC2CCC1(C)C2(C)C (stereo not drawn)
TGI: > 100 µM
//
compound: CCOP(=O)(Nc1ccc(-c2ccccc2)cc1)OCC
TGI: > 100 µM
//
compound: CC(=O)OC1COC(S[As](C)C)C(OC(C)=O)C1OC(C)=O (stereo not drawn)
TGI: 0.287 µM
//
compound: CCc1n[nH]c(=O)n1N1C(=O)C2CC=CCC2C1=O (stereo not drawn)
TGI: > 100 µM
//
compound: CCOc1ccc2c(c1)/C(=C(\C(Cl)=C(Cl)Cl)[N+](=O)[O-])N2
TGI: > 100 µM
//
compound: O=C(Nc1c(-c2nc3ccccc3[nH]2)sc(=S)n1-c1ccccc1)c1ccccc1
TGI: > 100 µM
//
compound: O=C(COc1cccc(/C=C2\COc3ccccc3C2=O)c1)Nc1nccs1
TGI: 3.49 µM
//
compound: Nc1ccc2c(c1)C(=O)c1c(F)cccc1-2
TGI: > 100 µM
//
compound: N=C(N)SCCc1cn2ccccc2n1
TGI: > 100 µM
//
compound: CCCN(CCC)c1ccc(CO)c(C)c1
TGI: 94.4 µM
//
compound: C=C(C=O)c1c2c(nc3ccccc13)C(=O)c1ccccc1C2=O
TGI: 3.27 µM
//
compound: COC(=O)NCCc1[nH]nc2c1C(=O)C=C(Nc1ccccc1)C2=O
TGI: 25.5 µM
//
compound: COc1cnc2c(c1)C(=O)c1c-2n(CCCn2ccnc2)c(=O)c2cc(Cl)ccc12
TGI: 37.4 µM
//
compound: COc1cc(-c2[nH]ccc2Cl)oc1C1=C2N=C3C=C2C(C(C)C)C1CCCCCCCC3 (stereo not drawn)
TGI: 2.49 µM
//
compound: COc1ccc2c3c1C(=O)CCC3CO2 (stereo not drawn)
TGI: > 100 µM
//
compound: COC(OC)c1cccc2c1C1(O)CCC3(CC21)OCCCCO3 (stereo not drawn)
TGI: > 100 µM
//
compound: Cc1c(-c2cc3n(n2)C(c2cccs2)C(C#N)=C(c2ccccc2)N3)c(=O)n(-c2ccccc2)n1C (stereo not drawn)
TGI: > 100 µM
//
compound: Cc1ccc(C)c(NC(=O)c2cc(-c3ccc([N+](=O)[O-])cc3)nc(N)n2)c1
TGI: > 100 µM
//
compound: CC(=O)OCC1OC(n2c(N)c(C#N)c(-c3ccccc3)c(C#N)c2=S)C(OC(C)=O)C(OC(C)=O)C1OC(C)=O (stereo not drawn)
TGI: > 100 µM
//
compound: C1COC(NC(C2CC2)C2CC2)=N1
TGI: > 100 µM
//
compound: CC1(O)CC2C(CC1SCCO)C2(C)C (stereo not drawn)
TGI: > 100 µM
//
compound: O=C(N/N=C1\CCc2ccccc2C1)N/N=C1\CCc2ccccc2C1
TGI: > 10 µM
//
compound: CC(c1ccc(Br)cc1)C(C(=O)O)C(=O)O (stereo not drawn)
TGI: > 100 µM

----------
Entries annotated with measured GI50
Tested on: NCI-H522 lung
Assay: NCI tumour cell line growth inhibition, 48 h
quantityKind: GI50

compound: CCC[C@H](N[C@@H]1CCc2cc(F)cc(F)c2C1)C(=O)Nc1cn(C(C)(C)CNCC(C)(C)C)cn1
result: 15.7 µM

compound: CC(ONC(=O)c1cc(C(F)(F)F)cc(C(F)(F)F)c1)C(=O)Nc1ccc(Cl)cc1 (centres undefined)
result: 4.14 µM

compound: Brc1ccc([I+]c2ccc(Br)cc2)cc1
result: 1.28 µM

compound: N#Cc1ccccc1C#C/C=C\C#Cc1ccc(OCCCNC(=O)c2cc3ccccc3[nH]2)cc1
result: 13.9 µM

compound: COc1ccc2[nH]cc(-c3nc(-c4cn(C)c5ccncc45)cs3)c2c1
result: 1.74 µM

compound: COC(CCP(=O)(c1ccccc1)c1ccccc1)(C(=O)c1ccccc1)c1ccccc1 (centres undefined)
result: 4.71 µM

compound: CC(=O)O[C@H]1CC[C@]2(C)[C@H]3CC[C@@H]4[C@H]5[C@H](C(C)C)CC[C@]5(C(=O)OCC(CO)(CO)N=C(N)N)CC[C@@]4(C)[C@]3(C)CC[C@H]2C1(C)C
result: 1.6 µM

compound: CCN(CC)c1ccc2c(c1)Oc1nc(N)c(C#N)c(N)c1C2Sc1ccc(SC)cc1 (centres undefined)
result: 2.42 µM

compound: CCOC(=O)CC1(O)C=CC(=O)C=C1
result: 0.515 µg/mL

----------
Below, each of the molecules is paired with its reported TGI value.
Test system: HCT-15 colon
Assay: NCI tumour cell line growth inhibition, 48 h

molecule: O=C1OC(c2ccc(O)c(-c3ccccc3)c2)(c2ccc(O)c(-c3ccccc3)c2)c2c(Cl)c(Cl)c(Cl)c(Cl)c21
TGI: > 100 µM

molecule: O=P(O)(O)C(O)/C=C/c1ccccc1 (stereo not drawn)
TGI: > 100 µM

molecule: COc1cc(OC)c2c(c1OC)OCC(Cc1ccc(O)cc1)C2=O (stereo not drawn)
TGI: > 25 µM

molecule: CC(=O)[O-].CC(=O)[O-].O=C(N/N=C/c1cc(Cl)cc(Cl)c1[OH2+])c1ccncc1.[Co+2]
TGI: > 100 µM

molecule: O=[N+]([O-])c1ccccc1N=Nc1c(O)[nH]c2ccccc12
TGI: > 100 µM

molecule: COC(=O)C1=Nc2c(C)nn(-c3ccccc3)c2N=C(c2ccc(C)cc2)C1
TGI: > 10 µM

molecule: O=C(O)C1C2CC3C(OC(=O)C31)C2Br (stereo not drawn)
TGI: > 100 µM

molecule: CC(C)C(C/C=C1/CC(CO)(COC(=O)CC(C(C)C)C(C)C)OC1=O)C(C)C (stereo not drawn)
TGI: 30.3 µM

molecule: COc1cccc2cc(C(N)=O)c(=N)oc12
TGI: > 100 µM

molecule: C(=C1c2ccccc2-c2ccccc21)c1ccccn1
TGI: 49.3 µM

molecule: O=S1(=O)CCN(Cc2ccccn2)CC1
TGI: > 100 µM

molecule: CC(NS(C)(=O)=O)c1ccccc1 (stereo not drawn)
TGI: > 100 µM

molecule: CN1C(=O)CNC(=O)[C@H](NC(=O)c2nc3ccccc3cc2O)CSSC[C@H]1C(=O)NCCc1nc2ccccc2cc1O
TGI: > 62.5 µM

molecule: Cc1ccc(NC(=O)/C(CC(=O)c2c[n+](=O)c3ccccc3n2O)=N\NC(=O)C[n+]2ccccc2)cc1
TGI: > 100 µM

molecule: Cc1ccc(/C=C/C(=O)c2c([O-])on[n+]2-c2ccccc2)cc1
TGI: 4.68 µM

molecule: COc1ccc2c(c1)c(C1(c3cn(C)c4ccc(OC)cc34)C(=O)Nc3ccc(F)cc31)cn2C
TGI: > 100 µM

molecule: Brc1ccc([I+]c2ccc(Br)cc2)cc1
TGI: 42.7 µM

molecule: N#Cc1[nH]c(=O)n(-c2ccc(Cl)cc2)c1N
TGI: > 10 µM

molecule: COc1ccc2c3c1C(=O)CCC3CO2 (stereo not drawn)
TGI: > 100 µM

molecule: O=C1NC2(CCCCC2)N=C2C(Cl)CCCC12Cl (stereo not drawn)
TGI: > 100 µM

molecule: C=C=C(C)[Si](C)(C)C
TGI: > 100 µM

molecule: NC(=O)CCC(NCc1c2ccccc2[n+]([O-])c2ccccc12)C(=O)O (stereo not drawn)
TGI: > 100 µM

molecule: CCC[CH2][Sn]([CH2]CCC)([O]C(=O)c1cccc(F)c1)[O]C(=O)c1cccc(F)c1
TGI: 3.45 µM

----------
Collected TGI values appear next to each entry.
System: SF-539 CNS
Assay: NCI tumour cell line growth inhibition, 48 h
quantityKind: TGI (µM)

compound: CCCN1C(=O)CCC2=C1CCc1c2ccc(Cl)c1Cl
valuePrefix: =
number: 95.4
--
compound: O=C1Nc2ccccc2C1Cc1ccccc1 (stereo unspecified)
valuePrefix: >
number: 100
--
compound: Cn1c(COC(=O)N2CCCCC2)nc2c(N3CCOCC3)nc(-c3ccccc3)nc21
valuePrefix: =
number: 2.61
--
compound: NC1CC(=O)c2csc(Br)c21 (stereo unspecified)
valuePrefix: =
number: 8.24
--
compound: Cc1ccc(/C=C/C(=O)c2c([O-])on[n+]2-c2ccccc2)cc1
valuePrefix: =
number: 12.7
--
compound: CC(C)C(=O)N[C@@H](C)C(=O)N(Cc1ccc2ccccc2c1)N=O
valuePrefix: >
number: 100

----------
Measured TGI by item
Tested on: SK-MEL-28 melanoma
Test: NCI tumour cell line growth inhibition, 48 h

compound: COC(=O)C(CCC1C=CCC1)N=Cc1ccccc1 (configuration not stated)
TGI: > 100 µM
//
compound: CCCCCCCCCCCCCCCc1cc(O)ccc1N
TGI: > 100 µM
//
compound: COc1cc2c(c(OC)c1OC)-c1[nH]ncc1CC2
TGI: > 100 µM
//
compound: COC(=O)CC1(CNC(=O)OCc2ccccc2)OCCO1
TGI: > 100 µM
//
compound: COc1ccc(C(O)CNC(=O)c2ccccc2)cc1 (configuration not stated)
TGI: > 100 µM
//
compound: COc1cc(OC)c2c(c1OC)OCC(Cc1ccc(O)cc1)C2=O (configuration not stated)
TGI: > 25 µM
//
compound: O=C1OCC(C#Cc2ccccc2)=C1Cl
TGI: 5.16 µM
